Every entry's value here was drawn from the supplement of paper PMC4932681.

Test system: T-47D Tam1
method.summary: relative IC50 (midpoint of fitted logistic curve, plateau may be below 50% inhibition; CellTiter-Glo viability); higher = less potent
assay.context: 4-OH-tamoxifen in medium 1 µM; 72 h
measure.name: relative IC50

compound	relative IC50
COc1c2occc2cc2ccc(=O)oc12	> 10 µM
Cn1nnc2c(C(N)=O)ncn2c1=O [Temozolomide]	> 10 µM
Oc1ncnc2[nH]ncc12	> 10 µM

Suppose we examine the compound CC(C)(C#N)c1cc(Cn2cncn2)cc(C(C)(C)C#N)c1 ; what relative IC50 value has been reported?
> 10 µM

Suppose we examine the compound NC(=O)c1cccc2cn(-c3ccc([C@@H]4CCCNC4)cc3)nc12 ; what relative IC50 value has been reported?
> 10 µM

Suppose we examine the compound O=S(=O)(c1cccc2cnccc12)N1CCCNCC1 ; what relative IC50 value has been reported?
> 50 µM

Suppose we examine the compound C[C@]12CC[C@H](O)CC1=CC[C@@H]1[C@@H]2CC[C@]2(C)C(c3cccnc3)=CC[C@@H]12 ; what relative IC50 value has been reported?
> 5 µM

Suppose we examine the compound NC(=O)c1ccc(I)c([N+](=O)[O-])c1 ; what relative IC50 value has been reported?
> 10 µM
